// Inhibition lookup, one value per entry
test system: Candida albicans; settings: Concentration 32 ug.mL-1; ASSAY_TEST Inhibition of Fungal Growth; detection method Absorption (OD530)
Description: Antifungal activity against Candida albicans ATCC 90028 (CO-ADD:FG_001); MIC in YNB media using NBS plates, by OD630
Entries with a potency or affinity are not part of this list.
State the value with its unit after it.

Before answering, review these 5 worked examples.
COc1cc(OC)c(NC(=O)Cn2nc3ccc(Sc4ccc(C)cc4)nn3c2=O)cc1Cl; 29.33%
CCc1nnc2c(S(=O)(=O)N(Cc3ccccc3F)c3ccc(F)cc3)cccn12; 1.99%
O=C(Cn1nc2c3sc(N4CCCC4)nc3ncn2c1=O)Nc1ccc(F)c(Cl)c1; 4.41%
CCCCc1ccc(NC(=O)Cn2nc3c(Sc4ccccc4)nccn3c2=O)cc1; 28.09%
O=C(CSc1nnc2c(=O)n(Cc3ccc(F)cc3)ccn12)NC1CCCC1; 5.19%

// sample Cc1ccc(-n2ccn3c(SCC(N)=O)nnc3c2=O)cc1C , its Inhibition was 1.07%

// sample NC(=O)CSc1nnc2c(=O)n(-c3ccccc3)ccn12 , its Inhibition was 2.06%

// sample Cc1cc(NC(=O)Cn2nc3ccc(SC(C)(C)C)nn3c2=O)ccc1Br , its Inhibition was 32.86%

// sample Cc1ccc(Nc2cc(C)n3c(=O)n(CCOc4ccc(F)cc4)nc3n2)cc1 , its Inhibition was 2.38%

// sample Cc1nnc2c(=O)n(CC(=O)Nc3cccc(Br)c3)c3ccccc3n12 , its Inhibition was -0.15%

====

system: Candida albicans; settings: Concentration 32 ug.mL-1; ASSAY_TEST Inhibition of Fungal Growth; detection method Absorption (OD530)
Measured potencies and affinities stand elsewhere.
reported endpoint: Inhibition (%)
State the answer as a number, implicitly in %.

CCOC(=O)c1ccccc1NC(=O)Cn1c(=O)c2nnc(C(C)C)n2c2ccccc21; 1.04
COc1ccc(N2CCN(C(=O)Cn3nc4c(Sc5cccc(C)c5)nccn4c3=O)CC2)cc1; 1.08
O=S(=O)(c1ccc2nncn2c1)N(Cc1cc(F)cc(F)c1)c1ccc(F)c(F)c1; 1.89
COC(=O)c1ccc(NC(=O)Cn2nc3ccc(S(=O)(=O)C4CCCCC4)nn3c2=O)cc1; 17.49
COc1ccccc1Cn1c(=O)c2sccc2n2c(=O)n(Cc3cccc(Br)c3)nc12; -0.62
CCC(C)NC(=O)c1ccc2c(=O)n(C3CC3)c3nn(CC(=O)NC(C)C)c(=O)n3c2c1 (stereo not given); -1.34

// sample CC(C)c1nnc2c(=O)n(CC(=O)Nc3ccc(C#N)cc3)c3ccccc3n12 , its Inhibition was 0.24

// sample COc1ccc(NC(=O)CSc2nc3ccccc3n3cnnc23)cc1OC , its Inhibition was 4.39

// sample Cc1ccc(-c2ccc3nn(Cc4nc(-c5ccc(Cl)cc5)no4)c(=O)n3n2)cc1 , its Inhibition was 7.26

// sample Cc1cccc(NC(=O)CSc2nnc3c4cc(-c5ccccc5)nn4ccn23)c1C , its Inhibition was 5.25

====

// Inhibition lookup, one value per entry
system: Klebsiella pneumoniae; settings: Concentration 32 ug.mL-1;; ASSAY_TEST Inhibition of Bacterial Growth; detection method Absorption (OD600); MEDIA CAMHB; plate type 384well; NBS; CORNING #3640; time 18 hr
Description: Antibacterial activity against Klebsiella pneumoniae MDR ATCC 70063 (CO-ADD:GN_003); MIC in CAMBH media using NBS plates, by OD(600)
Entries with a potency or affinity are not part of this list.
State the answer as a number, implicitly in %.

Before answering, review these 5 worked examples.
CCc1cccc(C)c1NC(=O)Cn1nc2ccc(SCc3ccc(Cl)cc3)nn2c1=O; 2.49
CCOC(=O)c1ccccc1NC(=O)Cn1nc2ccc(Sc3ccc(C)cc3)nn2c1=O; 14.69
CCc1nnc2c(S(=O)(=O)N(Cc3cccc(C)c3)c3ccc(Cl)cc3)cccn12; 3.49
O=C(Cn1nc2c(N3CCOCC3)nc3ccccc3n2c1=O)NCc1ccccc1Cl; -0.61
CCCCOc1ccc(-c2cc3c4nnc(SCC(=O)Nc5cccc(C#N)c5)n4ccn3n2)cc1; -0.44

Now consider a different molecule.
// sample COc1cccc(CNC(=O)CSc2nnc3ccc(C(=O)Nc4cccc(F)c4)cn23)c1 , its Inhibition was -3.24
